system: SF-295 CNS; assay: NCI-60 one-dose screen, 48 h; conditions: 10 µM unless noted
This is part of a sample that, as a whole, favours compounds with a hit. Of some 83,000 tested, about 20% had one in any assay. Active and inactive are the calls of the source. The calls were made as follows: active = growth percent below 10; inactive = the rest.
Outcome codes: true (1) (active), false (0) (inactive)

Molecule | Measurement target | Assigned label
N#C/C(C(=O)c1ccccc1)=C1/C(=O)Nc2ccccc21 | SF-295 CNS | false (0)
CC(C)[N+](C)(C)CC(O)COc1cccc2ccccc12 (centres undefined) | SF-295 CNS | false (0)
CCCN1CC(c2ccc(OC)c(OC)c2)=C(c2cn(C(=O)OCC)c3ccccc23)C1=O | SF-295 CNS | false (0)
CCCCCCCCCCCCCC[n+]1cccc(C(N)=O)c1 | SF-295 CNS | true (1)
C[C@]12CCc3c(ccc4cc(O)ccc34)[C@@H]1CC[C@H]2O | SF-295 CNS | false (0)
Nc1nnc(CSc2nnc3n(Cc4ccccc4)c(=O)c4c5c(sc4n23)CCCC5)s1 | SF-295 CNS | false (0)
Cc1cccc(C[C@H](NC(=O)Nc2ccc(C)cc2F)C(=O)N[C@@H]2C(=O)N3C[C@H](O)C[C@H]3C(=O)N3CCN(C)C[C@H]3C(=O)N[C@@H](C)C(=O)N3C[C@H](C)C[C@H]3C(=O)O[C@H]2C)c1 | SF-295 CNS | false (0)
CC(C)C1=NOC(=O)C1=Cc1cn(-c2cccnc2)nc1-c1ccccc1 | SF-295 CNS | false (0)
O=C1Cc2c(sc3c(F)cccc23)C(c2ccccc2[N+](=O)[O-])N1 (centres undefined) | SF-295 CNS | false (0)
